The origin of these recorded values is the supplement of paper PMC11208160.

- test_protocol: recombinant barcode read abundance after kanamycin selection (control-corrected) (log10(CPM+1)); higher = more efficient recombination; sequences stand for … in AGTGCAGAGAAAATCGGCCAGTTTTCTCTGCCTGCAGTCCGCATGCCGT…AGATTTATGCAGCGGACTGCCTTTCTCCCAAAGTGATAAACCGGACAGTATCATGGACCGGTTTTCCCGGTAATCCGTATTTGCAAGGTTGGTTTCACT; site = the 11-nt target;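 note: IS621 recombinase and bridge RNA in Escherichia coli cells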
Each entry below lists one item and its recorded recombinant barcode read abundance (log10) value.

INSERT INTO results (sequence_code, result) VALUES
  ('TCCGGTACTTGGGTTCTAACCTGTTGCAT (site TCCTGTACTAT)', 0.114),
  ('TAGATCCCTTGGGTTCTAACCTGTTGCTT (site TAGAACCCTAA)', 0.245),
  ('CTAGACTCTTGGGTTCTAACCTGTTGCTT (site CTAGACTCTTA)', 0.261);

Supply measured recombinant barcode read abundance (log10) of ATGAGGTCTTGGGTTCTAACCTGTTGCTC (site ATGAGCTCTTA) in your reply.
0.194

// Input: GTATCTACTTGGGTTCTAACCTGTTGCCT (site GCATCTACTAG) . Output its recombinant barcode read abundance (log10) only.
0.0197
